# credit: patent US20060257938A1

test.method.notes: Probe fluorescence ratio response to linolenic acid relative to ADIFAB2
Assay type: binding
condition.summary: response relative to ADIFAB2
# DR/DR LNA values compiled below
reported.endpoint: DR/DR LNA

{"molecule": "18I 31Y 73V 72A (protein, listed as Rattus norvegicus, PEPTIDE (1)...(131) wild-type rat intestinal fatty acid binding protein) AFDGTWKVDRNENYEKFIEKMGINVVKRKLYAHDNLKLTITQEGNKFTVKESSNFRNIDVVFELGVDFAYSAVDGTELTGTWTMEGNKLVGKFKRVDNGKELIAVREISGNELIQTYTYEGVEAKRIFKKE", "quantitative.result": 2.176}
{"molecule": "31N2, 72A (protein, listed as Rattus norvegicus, PEPTIDE (1)...(131) wild-type rat intestinal fatty acid binding protein) AFDGTWKVDRNENYEKFMEKMGINVVKRKLNAHDNLKLTITQEGNKFTVKESSNFRNIDVVFELGVDFAYSAADGTELTGTWTMEGNKLVGKFKRVDNGKELIAVREISGNELIQTYTYEGVEAKRIFKKE", "quantitative.result": 1.06}
{"molecule": "23W, 72A (protein, listed as Rattus norvegicus, PEPTIDE (1)...(131) wild-type rat intestinal fatty acid binding protein) AFDGTWKVDRNENYEKFMEKMGWNVVKRKLGAHDNLKLTITQEGNKFTVKESSNFRNIDVVFELGVDFAYSAADGTELTGTWTMEGNKLVGKFKRVDNGKELIAVREISGNELIQTYTYEGVEAKRIFKKE", "quantitative.result": 0.956}
{"molecule": "38S, 72A (protein, listed as Rattus norvegicus, PEPTIDE (1)...(131) wild-type rat intestinal fatty acid binding protein) AFDGTWKVDRNENYEKFMEKMGINVVKRKLGAHDNLKSTITQEGNKFTVKESSNFRNIDVVFELGVDFAYSAADGTELTGTWTMEGNKLVGKFKRVDNGKELIAVREISGNELIQTYTYEGVEAKRIFKKE", "quantitative.result": 1.295}
{"molecule": "34H, 72A (protein, listed as Rattus norvegicus, PEPTIDE (1)...(131) wild-type rat intestinal fatty acid binding protein) AFDGTWKVDRNENYEKFMEKMGINVVKRKLGAHHNLKLTITQEGNKFTVKESSNFRNIDVVFELGVDFAYSAADGTELTGTWTMEGNKLVGKFKRVDNGKELIAVREISGNELIQTYTYEGVEAKRIFKKE", "quantitative.result": 0.72}
{"molecule": "117P, 72A (protein, listed as Rattus norvegicus, PEPTIDE (1)...(131) wild-type rat intestinal fatty acid binding protein) AFDGTWKVDRNENYEKFMEKMGINVVKRKLGAHDNLKLTITQEGNKFTVKESSNFRNIDVVFELGVDFAYSAADGTELTGTWTMEGNKLVGKFKRVDNGKELIAVREISGNELIQTPTYEGVEAKRIFKKE", "quantitative.result": 0.83}
{"molecule": "51K1, 72A (protein, listed as Rattus norvegicus, PEPTIDE (1)...(131) wild-type rat intestinal fatty acid binding protein) AFDGTWKVDRNENYEKFMEKMGINVVKRKLGAHDNLKLTITQEGNKFTVKKSSNFRNIDVVFELGVDFAYSAADGTELTGTWTMEGNKLVGKFKRVDNGKELIAVREISGNELIQTYTYEGVEAKRIFKKE", "quantitative.result": 1.02}
{"molecule": "62A, 72A (protein, listed as Rattus norvegicus, PEPTIDE (1)...(131) wild-type rat intestinal fatty acid binding protein) AFDGTWKVDRNENYEKFMEKMGINVVKRKLGAHDNLKLTITQEGNKFTVKESSNFRNIDVVAELGVDFAYSAADGTELTGTWTMEGNKLVGKFKRVDNGKELIAVREISGNELIQTYTYEGVEAKRIFKKE", "quantitative.result": 1.08}
{"molecule": "51V3, 72A (protein, listed as Rattus norvegicus, PEPTIDE (1)...(131) wild-type rat intestinal fatty acid binding protein) AFDGTWKVDRNENYEKFMEKMGINVVKRKLGAHDNLKLTITQEGNKFTVKVSSNFRNIDVVFELGVDFAYSAADGTELTGTWTMEGNKLVGKFKRVDNGKELIAVREISGNELIQTYTYEGVEAKRIFKKE", "quantitative.result": 1.53}
{"molecule": "119G, 72A (protein, listed as Rattus norvegicus, PEPTIDE (1)...(131) wild-type rat intestinal fatty acid binding protein) AFDGTWKVDRNENYEKFMEKMGINVVKRKLGAHDNLKLTITQEGNKFTVKESSNFRNIDVVFELGVDFAYSAADGTELTGTWTMEGNKLVGKFKRVDNGKELIAVREISGNELIQTYTGEGVEAKRIFKKE", "quantitative.result": 0.81}
{"molecule": "51C3, 72A (protein, listed as Rattus norvegicus, PEPTIDE (1)...(131) wild-type rat intestinal fatty acid binding protein) AFDGTWKVDRNENYEKFMEKMGINVVKRKLGAHDNLKLTITQEGNKFTVKCSSNFRNIDVVFELGVDFAYSAADGTELTGTWTMEGNKLVGKFKRVDNGKELIAVREISGNELIQTYTYEGVEAKRIFKKE", "quantitative.result": 1.47}
